- Tested on: EKVX NSCLC
- measurement-description: NCI tumour cell line growth inhibition, 48 h
Please provide measured TGI for the entries that follow.

Output TGI of `O=c1[nH]c2ccc([N+](=O)[O-])c(Cl)c2c2ccccc12`
19.9 µM

Give the reported TGI for this compound. CC1CCCN1CCCOC(=O)c1ccc(OC2C=CCCC2)cc1 (centres undefined)
> 100 µM

Please indicate TGI recorded for `COc1ccc(-c2cc(-c3ccco3)c(C#N)c(=O)[nH]2)cc1`
> 100 µM

Identify measured TGI corresponding to COc1ccc(CC[N+]2(C)COc3cc4oc(=O)cc(C)c4cc3C2)cc1OC (centres undefined)
> 100 µM

====

- Tested on: SK-MEL-5 melanoma
- measurement-description: NCI tumour cell line growth inhibition, 48 h
observation-type: log10(TGI) (log10 of the value in µM)
Scale type: logarithmic (base 10). Underlying TGI unit: µM.

Provide log10(TGI), tested on SK-MEL-5 melanoma, for `O=c1cccccc1[O-].O=c1cccccc1[O-].O=c1cccccc1[O-].[Sm+3]` .
1.95

Return reported log10(TGI) for target or system SK-MEL-5 melanoma, item O=C(c1ccccc1)C(Br)C(Br)c1ccccc1 (stereo not given) .
1.41

Report value: log10(TGI), system: SK-MEL-5 melanoma, compound: CCCCCCCCCCCCC1N=C(N)N2CCCC2=C1C(=O)OC (stereo not given)
0.69

Give SK-MEL-5 melanoma log10(TGI) for the following compound: `COc1cc(OC)cc(-c2ccc(-c3ccc(C(=N)N)cn3)s2)c1`
0.50

Report value only: log10(TGI), SK-MEL-5 melanoma, `CN(C)c1ccc(N=C2C=CC(=C(C#N)C#N)c3ccccc32)cc1`
-0.15

====

- Test system: UO-31 renal
- measurement-description: NCI tumour cell line growth inhibition, 48 h
So I've got a bunch of compounds here, and I need their GI50 values.

Answer with the recorded GI50 for the compound listed here: `CCCCC[C@@H](C/C=C/CCC(=O)NC/C(=C/Cl)[C@H]1C(=O)C(C)(C)C(=O)[C@@H](C)[C@@]1(C)O)OC`
15.4 µM

Tell me GI50 reported for `COc1cc(/C=C\c2cc(OC)c(OC)c(OC)c2)cc(NS(=O)(=O)c2ccc(Cl)cc2)c1OC`
0.696 µM

Answer with the recorded GI50 of `OCCCCC#Cc1ccccc1C#Cc1ccc(C(F)(F)F)cc1` only.
16.3 µM

Give the reported value of GI50 for this record: `NC(N)=N/N=C/c1c(-c2ccncc2)nc2sc(Cl)cn12`
8.93 µM

Provide GI50 value for the following compound: `COc1ccc(/C=C/C(C)=N/OCC(=O)Nc2ccc(Cl)cc2)cc1`
1.67 µM

====

- Tested on: OVCAR-4 ovarian
- measurement-description: NCI tumour cell line growth inhibition, 48 h; in the data active = GI50 below about 0.43 µM; inactive = the rest
Select the correct class. Options are true = active, false = inactive and nothing else.

What is the recorded call for this compound in the test? CCCCCCCCCCCCOC1C(C(CC(=O)N2CCN(Cc3ccc4c(c3)OCO4)CC2)NS(=O)(=O)c2cc(Cl)cc(Cl)c2)OC2OC(C)(C)OC21 (stereo not given)
false

Entry `COc1ccc(/C=C\c2cc(OC)c(OC)c(OC)c2)c(NS(=O)(=O)c2ccc(C(C)(C)C)cc2)c1O` : call = ?
true

Would you mind telling me which call this test gave `COc1cc(OC)cc(-c2ccc(-c3ccc(C(=N)N)cn3)s2)c1` ?
false

Test call for this compound, please: `CC(=O)[O-].[Mn+3].[O-]c1ccc(Cl)cc1C=NCCN=Cc1cc(Cl)ccc1[O-]`
false

Call for entry `CC[C@@]1(O)C(=O)OCc2c1cc1n(c2=O)Cc2c-1nc1ccccc1c2C=Nc1ccccc1N[C@@H]1c2cc3c(cc2[C@@H](c2cc(OC)c(O)c(OC)c2)[C@H]2C(=O)OC[C@@H]21)OCO3` :
false

For `O=C(/C=C(\[O-])c1ccccc1)CCCCCCC(=O)/C=C(\[O-])c1ccccc1.O=C(/C=C(\[O-])c1ccccc1)CCCCCCC(=O)/C=C(\[O-])c1ccccc1.O=C(/C=C(\[O-])c1ccccc1)CCCCCCC(=O)/C=C(\[O-])c1ccccc1.[Nd+3].[Nd+3]` , which call appears in the assay record?
false

Could you kindly confirm the outcome this assay logged for Nc1ncc(C2[C@H](CNC(=O)c3cc(Br)c[nH]3)C(CNC(=O)c3cc(Br)c[nH]3)[C@@H]2c2cnc(N)[nH]2)[nH]1 (stereo not given in full) ?
false

What was the test verdict on `O=C(N/N=C/c1ccc(F)cc1)c1ccc(C(F)(F)F)nc1Nc1cccc(C(F)(F)F)c1` ?
true

Short answer needed: outcome of this test for `COC(=O)[C@H](Cc1cn(C)cn1)NC(=O)[C@@H](NC(=O)Nc1cc(C(F)(F)F)cc(C(F)(F)F)c1)C(C)C` ?
false

Outcome logged for O=C(c1ccccc1)C(Br)C(Br)c1ccccc1 (stereo not given) in this assay:
false

Per the assay record, what outcome was assigned to `COc1ccc(-c2cc(-c3ccccc3)nc(NCCNc3ccnc4cc(Cl)ccc34)n2)cc1` ?
false

Per the records of this test, what outcome belongs to `C=CCN=C(N/N=C/c1ccc([N+](=O)[O-])o1)NS(=O)(=O)c1cc(C(=O)Nc2ccccc2)c(Cl)cc1SCC(N)=O` ?
false

Assay outcome for COC(=O)[C@]1(C)CCC[C@]2(C)[C@@H]1CCC13C[C@@H](C=CO1)[C@@H](C)CC32O (stereo not given in full) : what was it?
false

Tell me the assay call for CNCc1cccc2c1OCCOCCOCCC(C)S(=O)(=O)c1ccc(cc1)-c1cnc(N)c(n1)C(=O)N2 (stereo not given) please.
false

Status in this test for `C=C(Cn1c2ccccc2c(=O)c2ccccc21)c1ccc(C(=O)Nc2ccccc2N)cc1` ?
true
